Cited source: patent US12091402B2

- Tested Target: IgG
- Assay Info: Affinity to IgG by surface plasmon resonance (SPR)
- Type: binding
- Condition Context: Biacore 8K, 25° C., IgG on CM5 chip; read-out: IgG SPR Binding Kd
pKd: −log10 of the molar value. Where a SMILES comes first, the peptide text is derived from it. Bridges are numbered along the chain shown (N, C = ends). [ ]: non-standard residue; d: D form. Pro(4S-NH2) = N[C@@H]1CN[C@H](C(=O)O)C1
Documented pKd across a set of compounds

{"Compound": "CC(C)C[C@@H]1NC(=O)[C@H](Cc2cnc[nH]2)NC(=O)[C@H](Cc2c[nH]c3ccccc23)NC(=O)[C@H](C)NC(=O)[C@@H]2CSSC[C@H](NC(=O)[C@H](Cc3c[nH]c4ccccc34)NC(=O)[C@H](C(C)C)NC(=O)[C@H](CC(C)C)NC(=O)[C@H](CCC(N)=O)NC(=O)CNC1=O)C(=O)N[C@@H]([C@@H](C)O)C(=O)N1CCC[C@@H]1C(=O)N1C[C@@H](N)C[C@H]1C(=O)N[C@@H](CC(=O)O)C(=O)N2 [Intermediate 18] (cyclo(AWHLGQLVWCT[dP][Pro(4S-NH2)]DC); disulfide 10-15)", "Tested Target": "IgG", "pKd": "> 7.00"}

pKd reading for CC(C)C[C@@H]1NC(=O)[C@H](C)NC(=O)CNC(=O)[C@H](CC(C)C)NC(=O)[C@H](Cc2cnc[nH]2)NC(=O)[C@H](Cc2c[nH]c3ccccc23)NC(=O)[C@H](C)NC(=O)[C@@H]2CSSC[C@H](NC(=O)[C@H](Cc3c[nH]c4ccccc34)NC(=O)[C@H](C(C)C)NC1=O)C(=O)N[C@@H]([C@@H](C)O)C(=O)N1CCC[C@@H]1C(=O)N1C[C@@H](N)C[C@H]1C(=O)N[C@@H](CC(N)=O)C(=O)N2 [Intermediate 28] (cyclo(ALVWCT[dP][Pro(4S-NH2)]NCAWHLG); disulfide 5-10) : > 7.00

----------
Here, each record is paired with measured Kd data.
- Tested Target: ASGPR (Homo sapiens, UniProt P07306)
- Sequence (P07306 whole entry): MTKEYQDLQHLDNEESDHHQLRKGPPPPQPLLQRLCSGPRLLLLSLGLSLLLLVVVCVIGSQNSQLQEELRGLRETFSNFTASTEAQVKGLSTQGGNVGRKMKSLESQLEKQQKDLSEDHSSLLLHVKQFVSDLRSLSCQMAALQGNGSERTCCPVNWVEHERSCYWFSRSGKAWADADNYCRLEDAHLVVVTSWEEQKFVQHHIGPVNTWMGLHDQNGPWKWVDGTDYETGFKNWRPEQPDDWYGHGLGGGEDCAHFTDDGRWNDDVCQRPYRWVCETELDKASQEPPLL
- Assay Info: Affinity to ASGPR by surface plasmon resonance (SPR)

{"Smiles Representation": "OC[C@H]1OC[C@H](Nc2nc(C(F)(F)F)ccc2F)[C@@H](O)[C@H]1O", "Tested Target": "ASGPR (Homo sapiens, UniProt P07306)", "Kd": "< 1000 nM"}

The recorded Kd for COCCO[C@@H]1O[C@H](CO)[C@H](O)[C@H](O)[C@H]1NC(=O)C(F)(F)F is 1000 to 10000 nM

Entry OC[C@H]1OC[C@H](Nc2ncnn3cccc23)[C@@H](O)[C@H]1O — recorded Kd = 1000 to 10000 nM

Memo: C=CCO[C@H]1O[C@H](CN=[N+]=[N-])[C@H](O)[C@H](O)[C@H]1Nc1nccc(C(F)(F)F)n1 , reported Kd: < 1000 nM

----------
Entries and their pKd
- Tested Target: UniProt:P07306
- Assay Info: Affinity to ASGPR by surface plasmon resonance (SPR)
pKd: −log10 of the molar value.

{"Compound": "CC(C)C[C@@H]1NC(=O)[C@H](Cc2cnc[nH]2)NC(=O)[C@H](Cc2c[nH]c3ccccc23)NC(=O)[C@H](C)NC(=O)[C@@H]2CSSC[C@H](NC(=O)[C@H](Cc3c[nH]c4ccccc34)NC(=O)[C@H](C(C)C)NC(=O)[C@H](CC(C)C)NC(=O)[C@H](CCC(=O)O)NC(=O)CNC1=O)C(=O)N[C@@H]([C@@H](C)O)C(=O)N1CCC[C@@H]1C(=O)N1C[C@@H](NC(=O)COCCOCC(=O)NC[C@H]3OC[C@H](Nc4cncc(C(F)(F)F)n4)[C@@H](O)[C@H]3O)C[C@H]1C(=O)N[C@@H](CC(=O)O)C(=O)N2 [Compound 42]", "pKd": "> 7.00"}

Short answer for COc1cc(C(F)(F)F)nc(N[C@H]2[C@H]3OC[C@](CO)(O3)[C@H](O)[C@@H]2O)n1 [A46] : pKd was > 6.00

Given item OC[C@H]1OCC(Nc2cc(C(F)(F)F)[nH]n2)[C@@H](O)[C@H]1O (stereo in doubt) [A93] , the value recorded as its pKd is < 7.00

// O=C(O)CC(=O)NC(COCCC(=O)NC[C@H]1OC[C@H](Nc2cncc(C(F)(F)F)n2)[C@@H](O)[C@H]1O)COCCC(=O)NC[C@H]1OC[C@H](Nc2cncc(C(F)(F)F)n2)[C@@H](O)[C@H]1O [A33] : pKd value = > 7.00

----------
- Tested Target: ASGPR (Homo sapiens, UniProt P07306)
- Assay Info: Affinity to ASGPR by surface plasmon resonance (SPR)
pKd: −log10 of the molar value.
Measure Name: pKd

{"Smiles Representation": "CN(C[C@H]1OC[C@H](Nc2cncc(C(F)(F)F)n2)[C@@H](O)[C@H]1O)c1ccccc1", "pKd": "> 6.00"}
{"Smiles Representation": "C=CCO[C@H]1O[C@H](Cn2cc(CO)nn2)[C@H](O)[C@H](O)[C@H]1NC(=O)C(F)(F)F", "pKd": "5.00 to 6.00"}
{"Smiles Representation": "CC(C)C[C@@H]1NC(=O)[C@H](Cc2cnc[nH]2)NC(=O)[C@H](Cc2c[nH]c3ccccc23)NC(=O)[C@H](C)NC(=O)[C@@H]2CSSC[C@H](NC(=O)[C@H](Cc3c[nH]c4ccccc34)NC(=O)[C@H](C(C)C)NC(=O)[C@H](CC(C)C)NC(=O)[C@H](CCC(=O)O)NC(=O)CNC1=O)C(=O)N[C@@H]([C@@H](C)O)C(=O)N1CCC[C@@H]1C(=O)N1C[C@@H](NC(=O)CCOCCNC(=O)CCCc3cn(C[C@@]45CO[C@@H](O4)[C@H](Nc4nc(Cl)ns4)[C@@H](O)[C@H]5O)nn3)C[C@H]1C(=O)N[C@@H](CC(=O)O)C(=O)N2", "pKd": "> 7.00"}
{"Smiles Representation": "O=C(CCOCC(COCCC(=O)NCCOCCOCCOCCOC[C@H]1OC[C@H](Nc2nccc(C(F)(F)F)n2)[C@@H](O)[C@H]1O)NC(=O)COCCOCCOCC(=O)NCCN1C(=O)C=CC1=O)NCCOCCOCCOCCOC[C@H]1OC[C@H](Nc2nccc(C(F)(F)F)n2)[C@@H](O)[C@H]1O", "pKd": "> 7.00"}
{"Smiles Representation": "O[C@@H]1[C@H](O)[C@@H](Nc2nccc(C(F)(F)F)n2)CO[C@@H]1Cn1ccnn1", "pKd": "> 6.00"}
{"Smiles Representation": "OC[C@@]12CO[C@@H](O1)[C@H](Nc1ncc(C(F)(F)F)c(Cl)n1)[C@@H](O)[C@H]2O", "pKd": "> 6.00"}
{"Smiles Representation": "NC[C@H]1OC[C@H](Nc2cncc(C(F)(F)F)n2)[C@@H](O)[C@H]1O", "pKd": "> 6.00"}
{"Smiles Representation": "O=C(O)CNC(COCCC(=O)NCCOCCOCCOCCOC[C@H]1OC[C@H](Nc2cncc(C(F)(F)F)n2)[C@@H](O)[C@H]1O)COCCC(=O)NCCOCCOCCOCCOC[C@H]1OC[C@H](Nc2cncc(C(F)(F)F)n2)[C@@H](O)[C@H]1O", "pKd": "> 7.00"}

pKd for ASGPR (Homo sapiens, UniProt P07306) with input O=C(CCOCc1ccc(-c2cccc3ccncc23)c(OCCc2ccc(-c3cccc4ccncc34)cc2)c1)NCCOCCOCCOCCOC[C@@]12CO[C@@H](O1)[C@H](Nc1cncc(C(F)(F)F)n1)[C@@H](O)[C@H]2O equals > 7.00

Case O=C(O)COCCOCCOCCOC[C@H]1OC[C@H](Nc2nccc(C(F)(F)F)n2)[C@@H](O)[C@H]1O , ASGPR (Homo sapiens, UniProt P07306), pKd recorded as 6.30 to 7.00

Tested on ASGPR (Homo sapiens, UniProt P07306), the item O[C@@H]1[C@H](O)[C@@H](Nc2nccc(C(F)(F)F)n2)CO[C@@H]1c1nc2ccc(Br)cc2[nH]1 showed pKd equal to < 4.70

Measured pKd for this entry CC(C)C[C@@H]1NC(=O)[C@H](Cc2cnc[nH]2)NC(=O)[C@H](Cc2c[nH]c3ccccc23)NC(=O)[C@H](C)NC(=O)[C@@H]2CSSC[C@H](NC(=O)[C@H](Cc3c[nH]c4ccccc34)NC(=O)[C@H](C(C)C)NC(=O)[C@H](CC(C)C)NC(=O)[C@H](CCC(=O)O)NC(=O)CNC1=O)C(=O)N[C@@H]([C@@H](C)O)C(=O)N1CCC[C@@H]1C(=O)N1C[C@@H](NC(=O)c3ccc(C(=O)NC[C@H]4OC[C@H](Nc5cncc(C(F)(F)F)n5)[C@@H](O)[C@H]4O)cc3)C[C@H]1C(=O)N[C@@H](CC(=O)O)C(=O)N2 on ASGPR (Homo sapiens, UniProt P07306): > 7.00

Entry C[Si](C)(C)c1cn(C[C@H]2OC[C@H](Nc3nccc(C(F)(F)F)n3)[C@@H](O)[C@H]2O)nn1 , tested on ASGPR (Homo sapiens, UniProt P07306), has a reported pKd of 5.00 to 6.00
